species: Homo sapiens; assay: Selectivity ratio of Ki for inhibition of alexa fluor 647-labeled kinase tracer 314 binding to recombinant human full-length N-terminal His6-tagged p110alpha/p85alpha expressed in baculovirus expression system to Ki for inhibition of alexa fluor 647-labeled kinase tracer 314 binding to recombinant human N-terminal GST-fused mTOR (1360 to 2549 residues) expressed in baculovirus expression system
Classes by Ratio Ki: lo = under 4, mid = from 4 up to 50, hi = 50 and over

>>> print(df.to_string())
                        structure_as_smiles  answer_label
0  C[C@H]1COCCN1c1nc(-c2ccc(N)nc2)nc2c1C[C@H]1COCCN21            lo
1  Nc1ccc(-c2nc(N3CCOCC3)nc3c2C[C@@H]2COCCN32)cn1            lo
2  Nc1cc(C(F)F)c(-c2nc(N3C4CCC3COC4)nc(N3C4CCC3COC4)n2)cn1            hi
3  C[C@@H]1COCCN1c1nc(-c2ccc(N)nc2)nc2c1C[C@H]1COCCN21           mid
4  Cc1cc(N)ncc1-c1nc2c(c(N3CCOC[C@H]3C)n1)C[C@@H]1COCCN21           mid
5  COC(OC)c1cc(N)ncc1-c1nc2c(c(N3CCOC[C@H]3C)n1)C[C@@H]1COCCN21            lo
6  Cc1cc(-c2nc3c(c(N4CCOC[C@H]4C)n2)C[C@@H]2COCCN32)cnc1N            hi
7  C[C@H]1COCCN1c1nc(-c2ccc(N)nc2)nc2c1C[C@@H]1COCCN21           mid
8  Nc1ccc(-c2nc(N3C4CCC3COC4)c3c(n2)N2CCOC[C@@H]2C3)cn1            hi

----------
Quick reference for Ki among some compounds
molecular target: PI3-kinase p110-alpha/p85-alpha (Homo sapiens); test: Inhibition of alexa fluor 647-labeled kinase tracer 314 binding to recombinant human full-length N-terminal His6-tagged p110alpha/p85alpha expressed in baculovirus expression system by TR-FRET assay
Sequence (P27986 whole entry): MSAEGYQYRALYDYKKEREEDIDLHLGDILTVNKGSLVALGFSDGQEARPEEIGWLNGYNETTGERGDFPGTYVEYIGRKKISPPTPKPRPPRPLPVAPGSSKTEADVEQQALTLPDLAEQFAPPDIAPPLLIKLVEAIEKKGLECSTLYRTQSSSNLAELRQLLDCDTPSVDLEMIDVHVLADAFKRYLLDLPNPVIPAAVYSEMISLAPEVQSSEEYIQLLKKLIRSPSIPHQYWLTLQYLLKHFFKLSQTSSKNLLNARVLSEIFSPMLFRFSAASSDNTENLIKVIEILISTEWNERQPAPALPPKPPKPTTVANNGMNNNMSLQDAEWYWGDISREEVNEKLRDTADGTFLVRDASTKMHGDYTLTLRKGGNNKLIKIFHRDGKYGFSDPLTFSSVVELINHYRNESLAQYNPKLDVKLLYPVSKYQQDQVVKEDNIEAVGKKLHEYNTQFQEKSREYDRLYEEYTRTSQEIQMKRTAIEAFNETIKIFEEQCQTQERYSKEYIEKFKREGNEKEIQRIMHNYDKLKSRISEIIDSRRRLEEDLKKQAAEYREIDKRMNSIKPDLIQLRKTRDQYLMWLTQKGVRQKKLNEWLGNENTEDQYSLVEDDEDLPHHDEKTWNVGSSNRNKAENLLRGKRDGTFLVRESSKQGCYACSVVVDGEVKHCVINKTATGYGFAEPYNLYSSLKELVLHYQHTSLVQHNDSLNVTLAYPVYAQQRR
Sequence (P42336 whole entry): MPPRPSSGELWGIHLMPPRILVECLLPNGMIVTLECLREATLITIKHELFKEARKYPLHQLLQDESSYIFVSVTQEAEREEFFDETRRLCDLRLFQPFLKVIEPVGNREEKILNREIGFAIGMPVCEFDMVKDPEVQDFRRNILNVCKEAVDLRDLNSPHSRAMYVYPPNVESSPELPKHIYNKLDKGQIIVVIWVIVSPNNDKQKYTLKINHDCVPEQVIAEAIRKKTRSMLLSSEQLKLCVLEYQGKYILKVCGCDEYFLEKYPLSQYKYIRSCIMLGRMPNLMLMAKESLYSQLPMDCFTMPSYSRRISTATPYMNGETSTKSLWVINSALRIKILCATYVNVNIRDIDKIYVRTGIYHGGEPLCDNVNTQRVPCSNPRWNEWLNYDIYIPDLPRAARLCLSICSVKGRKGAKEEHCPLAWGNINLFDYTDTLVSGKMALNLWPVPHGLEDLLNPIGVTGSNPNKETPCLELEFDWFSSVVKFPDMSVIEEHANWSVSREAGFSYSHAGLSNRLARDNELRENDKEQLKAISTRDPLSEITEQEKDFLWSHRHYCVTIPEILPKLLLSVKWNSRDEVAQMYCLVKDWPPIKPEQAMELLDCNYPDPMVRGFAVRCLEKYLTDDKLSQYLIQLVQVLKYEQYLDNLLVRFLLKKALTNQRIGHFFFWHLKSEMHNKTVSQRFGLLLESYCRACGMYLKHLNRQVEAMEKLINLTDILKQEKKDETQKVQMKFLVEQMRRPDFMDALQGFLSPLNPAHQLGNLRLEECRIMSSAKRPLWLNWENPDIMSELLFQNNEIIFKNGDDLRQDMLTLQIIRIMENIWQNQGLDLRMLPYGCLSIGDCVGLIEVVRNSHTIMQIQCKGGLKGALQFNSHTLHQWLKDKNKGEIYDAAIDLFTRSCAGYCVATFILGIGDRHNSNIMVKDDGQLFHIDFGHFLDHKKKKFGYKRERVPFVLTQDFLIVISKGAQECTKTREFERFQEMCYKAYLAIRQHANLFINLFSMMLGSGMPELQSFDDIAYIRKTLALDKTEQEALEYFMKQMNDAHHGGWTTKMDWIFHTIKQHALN
PROPERTY NAME: Ki

                        structure_as_smiles                             target_entity  property_name  recorded_measurement
0  Nc1cc(C(F)(F)F)c(-c2nc(N3CCOCC3)c3c(n2)N2CCOC[C@@H]2C3)cn1  PI3-kinase p110-alpha/p85-alpha (Homo sapiens)             Ki              0.021 µM
1  Cc1cc(-c2nc3c(c(N4CCOC[C@H]4C)n2)C[C@@H]2COCCN32)cnc1N  PI3-kinase p110-alpha/p85-alpha (Homo sapiens)             Ki               9.63 µM
2  COc1cc(N)ncc1-c1nc2c(c(N3CCOC[C@H]3C)n1)C[C@@H]1COCCN21  PI3-kinase p110-alpha/p85-alpha (Homo sapiens)             Ki                 16 µM
3  Nc1ccc(-c2nc(N3CCOCC3)c3c(n2)N2CCOC[C@@H]2C3)cn1  PI3-kinase p110-alpha/p85-alpha (Homo sapiens)             Ki              0.076 µM
4  CC1(C)COCCN1c1nc(-c2ccc(N)nc2)nc2c1C[C@H]1COCCN21  PI3-kinase p110-alpha/p85-alpha (Homo sapiens)             Ki               7.19 µM
